assay: Cytotoxicity against human HepG2(2.2.15) cells assessed as cell viability at 0.02 mM after 48 hrs by MTT assay; type: cell-based; conditions: read-out: Activity
Measured metric: viability at 48 h, 20 µM (%)
Just the number please, in %, no unit attached.

Suppose we examine the compound COc1cccc(/C=C/C(=O)OCCc2c(-c3ccccc3Cl)c3cc(Cl)ccc3[nH]c2=O)c1 ; what viability at 48 h, 20 µM value has been reported?
95.2

---

experiment: Cytotoxicity against human HepG2(2.2.15) cells; type: cell-based
Threshold 50 µM: CC50 strictly smaller gives Condition met, otherwise Condition not met.

Dear colleague, could you confirm whether CC50 of O=C(CCC1CCCCC1)OCCc1c(-c2ccccc2Cl)c2cc(Cl)ccc2[nH]c1=O falls below 50 µM? Thanks.
Condition not met

Is 50 µM strictly greater than the compound's reported CC50? compound: O=C(OCCc1c(-c2ccccc2Cl)c2cc(Cl)ccc2[nH]c1=O)C1CCCCC1
Condition met

Does the reported CC50 of O=C(/C=C/c1cccc(F)c1)OCCc1c(-c2ccccc2Cl)c2cc(Cl)ccc2[nH]c1=O stay below 50 µM?
Condition not met

Consider the compound CCOCC(=O)OCCc1c(-c2ccccc2Cl)c2cc(Cl)ccc2[nH]c1=O . Is its CC50 strictly less than 50 µM?
Condition not met

Does the reported CC50 of CCCC(=O)OCCc1c(-c2ccccc2Cl)c2cc(Cl)ccc2[nH]c1=O stay below 50 µM?
Condition not met

Does the reported CC50 of O=c1[nH]c2ccc(Cl)cc2c(-c2ccccc2Cl)c1CCO stay below 50 µM?
Condition not met

Just wondering, is CC50 of COc1ccc(/C=C/C(=O)OCCc2c(-c3ccccc3Cl)c3cc(Cl)ccc3[nH]c2=O)cc1OC below 50 µM?
Condition not met

Lab log: compare recorded CC50 with 50 µM; is it strictly lower for Cn1c(=O)c(CCO)c(-c2ccccc2Cl)c2cc(Cl)ccc21 ?
Condition met

A record lists O=C(COc1ccccc1)OCCc1c(-c2ccccc2Cl)c2cc(Cl)ccc2[nH]c1=O . Is its CC50 below 50 µM?
Condition not met

Answer whether the compound CCCCCCCC(=O)OCCc1c(-c2ccccc2Cl)c2cc(Cl)ccc2[nH]c1=O has CC50 strictly less than 50 µM
Condition not met

// provenance: ChEMBL document CHEMBL1649405
